# studyTarget: T1, HLA-B*07:02 (human)
# T1 construct: also called peptide-receptive MHC molecules
# protocolNotes: UV-exchange b2m ELISA; exchange-yield grade
measurementType: peptide exchange yield

Reference set, count: 3
SPSSPMSTF = 20 to 50%
GPREALSRL = 50 to 75%
RPLFQKSSM = 50 to 75%

Here is the next item to consider.
Problem: Param item = FPHSEMTTL ; retrieve measured peptide exchange yield.
Result: 50 to 75%
